- protocolDescription: Taft steric parameter Es of sterically hindering group
- Assay type: physicochemical
- Set-up: key: Taft steric parameter Es, referenced to H = 0 (more negative = bulkier)
In this section, each of the molecules is paired with its reported Es Value for Sterically Hindering Group.
readout: Es Value for Sterically Hindering Group

INSERT INTO measurements (molecule, endpointresult) VALUES
  ('CCCCCCCCCCC(Oc1ccc(S(=O)(=O)c2ccc(OCc3ccccc3)cc2)cc1)C(=O)Nc1ccc(Oc2ccc(C(C)(C)CC)cc2C(C)(C)CC)c(C(=O)NC2=NN(c3c(Cl)cc(Cl)cc3Cl)C(=O)C2n2cccn2)c1 (centres unmarked) [Example 14]', -3.0),
  ('CCCCCCCCCCCCC(Oc1ccc(C(C)(C)CC(C)(C)C)cc1)C(=O)NC1=NN(c2c(Cl)cc(Cl)cc2Cl)C(=O)C1n1cccn1 (centres unmarked) [Example 17]', -2.6),
  ('CCCCCCCCC(Oc1ccc(C(C)(C)CC(C)(C)C)cc1C(C)(C)CC(C)(C)C)C(=O)NC1=NN(c2c(Cl)cc(Cl)cc2Cl)C(=O)C1n1cccn1 (centres unmarked) [Example 2]', -2.6),
  ('CCCCCCCCCCCCC(Oc1ccc(CCCCC)cc1CCCCC)C(=O)NC1=NN(c2c(Cl)cc(Cl)cc2Cl)C(=O)C1n1cccn1 (centres unmarked) [Example 10]', -1.6),
  ('CCCCC(Oc1ccc(C(C)(C)CC)cc1C(C)(C)CC)C(=O)NC1=NN(c2c(Cl)cc(Cl)cc2Cl)C(=O)C1n1cccn1 (centres unmarked) [Example 4]', -3.0);
